- measurementTarget: Melanin-concentrating hormone receptor 1 (Homo sapiens)
- Sequence (Q99705 whole entry): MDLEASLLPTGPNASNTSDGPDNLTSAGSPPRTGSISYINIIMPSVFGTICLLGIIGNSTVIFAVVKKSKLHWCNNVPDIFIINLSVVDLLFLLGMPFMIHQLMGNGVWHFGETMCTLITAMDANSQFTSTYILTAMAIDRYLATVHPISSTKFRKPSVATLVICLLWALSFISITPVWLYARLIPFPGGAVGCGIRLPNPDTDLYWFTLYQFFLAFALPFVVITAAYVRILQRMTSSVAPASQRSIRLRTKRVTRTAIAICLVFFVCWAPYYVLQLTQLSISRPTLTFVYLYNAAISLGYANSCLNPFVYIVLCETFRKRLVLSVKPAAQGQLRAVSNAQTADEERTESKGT
pKi: −log10 of the molar value.
endpointLabel: pKi

(1) N#Cc1cccc([C@]23CC[C@@H](N(CCN4CC[C@H](O)C4)C(=O)Nc4ccc(F)c(C(F)(F)F)c4)C[C@H]2C3)c1
(2) N#Cc1cccc(C2=CC(N(CCN3CCCC3)C(=O)Nc3cc(Cl)cc(Cl)c3)CC2)c1 (configuration not stated)
**Q:** # query: argmin of pKi over 1 and 2 To answer, give the label that identifies your chosen option.
**A:** 2
(2: 6.22, 1: 7.82)

(1) CN1CCN(CCCN(C(=O)Nc2ccc(F)c(C(F)(F)F)c2)[C@@H]2CC[C@]3(c4cccc(F)c4)C[C@H]23)CC1 (relative stereo)
(2) CS(=O)(=O)c1ccc([C@]23CC[C@@H](N(CC4CCN(S(C)(=O)=O)CC4)C(=O)Nc4ccc(F)c(Cl)c4)[C@H]2C3)cc1 (relative stereo)
**Q:** Lab log: flag the item ( 1 or 2 ) with the smaller pKi figure. # reply format: chosen label
**A:** 2

(A) N#Cc1cccc([C@]23CC[C@@H](N(CCCCN4CCOCC4)C(=O)Nc4ccc(F)c(C(F)(F)F)c4)[C@H]2C3)c1 (relative stereo)
(B) CS(=O)(=O)c1ccc([C@]23CC[C@@H](N(CCCN4CCCC4=O)C(=O)Nc4ccc(F)c(Cl)c4)[C@H]2C3)cc1 (relative stereo)
**Q:** Hey, between A and B which has a smaller measured pKi? Please indicate the selected item by its label.
**A:** B

###

- testName: Half life in rat at 10 mg/kg, iv
- Assay type: ADME, organism-based
- Parameters: dose 10 mg/kg, route intravenous
- experimentalParameters: in vivo
endpointLabel: half-life (h)
Expressed in h, but write only the number.

**Q:** Could you please provide reported half-life for CN1CCN(CCCN(C(=O)Nc2ccc(F)c(C(F)(F)F)c2)[C@@H]2CC[C@]3(c4ccc(C#N)cc4)C[C@H]23)CC1 (relative stereo) ? Thanks!
**A:** 4

###

- testName: AUC (0-24h) in rat at 10 mg/kg, po
- Format: ADME, organism-based, Plasma
- Design: time < 24 hr, dose 10 mg/kg, route oral
- experimentalParameters: plasma
endpointLabel: AUC(0-t) at 24 h (µM·h)

structureSmilesString: N#Cc1cccc([C@]23CC[C@@H](N(CCN4CC[C@H](O)C4)C(=O)Nc4ccc(F)c(C(F)(F)F)c4)C[C@H]2C3)c1
AUC(0-t) at 24 h [µM·h]: 16.4
//
structureSmilesString: N#Cc1cccc([C@]23CC[C@@H](N(CCN4CC[C@@H](O)C4)C(=O)Nc4ccc(F)c(Cl)c4)C[C@H]2C3)c1
AUC(0-t) at 24 h [µM·h]: 14

###

- measurementTarget: Melanin-concentrating hormone receptor 1 (Mus musculus) (UniProt Q8JZL2)
- Sequence (Q8JZL2 whole entry): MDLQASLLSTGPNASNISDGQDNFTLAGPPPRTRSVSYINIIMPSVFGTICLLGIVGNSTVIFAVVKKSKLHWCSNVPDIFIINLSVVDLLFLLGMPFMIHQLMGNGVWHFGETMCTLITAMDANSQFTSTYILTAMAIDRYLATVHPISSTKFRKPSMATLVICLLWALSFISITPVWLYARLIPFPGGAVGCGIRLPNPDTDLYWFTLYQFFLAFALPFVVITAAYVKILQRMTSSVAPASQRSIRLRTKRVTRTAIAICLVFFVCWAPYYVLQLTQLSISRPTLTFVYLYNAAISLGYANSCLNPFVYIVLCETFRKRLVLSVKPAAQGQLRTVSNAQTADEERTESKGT
- testName: Receptor occupancy ex vivo by displacement of [125I]S36057 binding from MCHR1 in C57BL/6N mouse brain after 6 hrs at 30 mg/kg, po
- Format: functional, organism-based
- Parameters: dose 30 mg/kg
endpointLabel: Activity (%)

As a guide, the following entries are already answered.
compound: N#Cc1cccc([C@]23CC[C@@H](N(CCCCN4CCOCC4)C(=O)Nc4ccc(F)c(C(F)(F)F)c4)[C@H]2C3)c1 (relative stereo)
numericResult: 64
--
compound: CN1CCN(CCCN(C(=O)Nc2ccc(F)c(C(F)(F)F)c2)[C@@H]2CC[C@]3(c4ccc(F)cc4)C[C@H]23)CC1 (relative stereo)
numericResult: 100
--
compound: COc1ccc([C@]23CC[C@@H](N(CCCN4CCN(C)CC4)C(=O)Nc4ccc(F)c(C(F)(F)F)c4)[C@H]2C3)cc1 (relative stereo)
numericResult: 100

(P) CN1CCN(CCCCN(C(=O)Nc2ccc(F)c(C(F)(F)F)c2)[C@@H]2CC[C@]3(c4cccc(C#N)c4)C[C@H]23)CC1 (relative stereo)
(Q) CN1CCN(CCN(C(=O)Nc2ccc(F)c(C(F)(F)F)c2)[C@@H]2CC[C@]3(c4cccc(C#N)c4)C[C@H]23)CC1 (relative stereo)
**Q:** Compare reported Activity values for P and Q . Which is lower? Please respond with the label that marks your chosen entry.
**A:** Q
(Q: 53%, P: 85%)

From: ChEMBL document CHEMBL1146084
